Biological target: T1, recombinant soluble human Seprase (rhuSeprase) (human, UniProt Q12884 29-760)
T1 construct: range 29-760; Secreted from CHO-S cells with a mouse Ig kappa secretion signal (not part of the protein in the assay); also called recombinant human Seprase; soluble fraction of human Seprase
T1 sequence: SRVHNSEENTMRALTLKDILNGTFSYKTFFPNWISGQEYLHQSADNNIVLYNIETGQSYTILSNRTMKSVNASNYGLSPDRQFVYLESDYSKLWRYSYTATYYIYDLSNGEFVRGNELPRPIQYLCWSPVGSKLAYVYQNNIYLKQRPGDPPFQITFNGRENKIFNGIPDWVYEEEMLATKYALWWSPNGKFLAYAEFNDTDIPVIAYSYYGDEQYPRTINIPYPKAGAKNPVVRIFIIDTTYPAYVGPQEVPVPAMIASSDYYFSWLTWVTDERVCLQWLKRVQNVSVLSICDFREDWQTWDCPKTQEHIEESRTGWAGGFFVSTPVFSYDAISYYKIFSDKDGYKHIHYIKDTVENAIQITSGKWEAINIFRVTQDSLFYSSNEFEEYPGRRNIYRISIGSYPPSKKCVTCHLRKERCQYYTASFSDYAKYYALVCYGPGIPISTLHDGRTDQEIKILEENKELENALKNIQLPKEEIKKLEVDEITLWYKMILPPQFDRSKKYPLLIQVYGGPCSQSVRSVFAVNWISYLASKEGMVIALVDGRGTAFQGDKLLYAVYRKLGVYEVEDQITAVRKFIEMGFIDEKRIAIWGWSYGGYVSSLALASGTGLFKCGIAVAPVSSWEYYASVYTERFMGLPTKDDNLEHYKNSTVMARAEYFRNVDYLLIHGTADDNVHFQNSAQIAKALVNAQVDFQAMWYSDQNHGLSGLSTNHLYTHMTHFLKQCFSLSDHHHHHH
Assay: SPR (Biacore T-100), rhuSeprase immobilized on CM5, multi cycle kinetics, 1:1 fit
No end group written: not given here.
ENDPOINT_NAME: Kd (nM)
Numeric only. Scale: nM

// Kd lookup, key: GSGACPYTNWHPGRGPACRRDSDCPGRCICRGNGYCG (designed binder) [FA8-G12]
487

// repeat for GKCPYSNWTPGRGPDCRRDSDCPGRCICRGNGYCG (designed binder, disulfide (positions not given here), also called soluble monovalent MC-FA-010; solitary MC-FA-010 miniprotein) [MC-FA-010] and report
149

// repeat for GSGACPYSNWTPGRGPDCSQDSDCLAGCVCGPNGFCG (designed binder) [ET-FA-012] and report
1400

// repeat for GACPYSNWTPGRGPDCRRDSDCPGRCICRGNGYCG (designed binder, disulfide (positions not given here), it is derived from MC-FA-010 and K2A; also called MC-FA-012 (K2A); monomeric MC-FA-012 Microbody) [MC-FA-012] and report
340

// repeat for GSGACPYSNWTPGRGPDCSSDSDCPGACICLENGFCG (designed binder) [MO-FA-012] and report
1340

// repeat for GSGACPYSNWAVGRGPSCRRDSDCPGRCICRGNGYCG (designed binder) [FA8-F04] and report
321
